system: WNV; experiment: microbe, parasite or virus in culture; type: cell-based, west nile virus; settings: West Nile virus, BHK-21, 2 h, read-out: EC50 WNV 2hrs p.i.
Readout Label: pEC50
One number for each entry, as −log10 of the molar value.

IN: Requested field: pEC50. Item: C[C@@]1(O)[C@H](O)[C@@H](CO)O[C@H]1n1cnc2c(=O)[nH]c(N)nc21 [2’-C-methyl-guanosine, reference compound]
OUT: 6.00

###

test: in vitro; settings: African green monkey (Cercopithecus aethiops)
Readout Label: CC50 (µM)
Numbers only, in µM.

IN: Requested field: CC50. Item: COC(=O)[C@H](CCC=C(C)C)[C@@H]1[C@@H](O)C[C@]2(C)C3=CC[C@H]4C(C)(C)C(=O)CC[C@]4(C)[C@H]3CC[C@@]12C [Compound 2, methyl kulonate]
OUT: 100

###

tested on: Reo-1; experiment: microbe, parasite or virus in culture; format: cell-based, reovirus type-1; details: Reovirus sp., BHK-21, read-out: EC50 Reo-1
Readout Label: pEC50
One number for each entry, as −log10 of the molar value.

IN: Requested field: pEC50. Item: C[C@@]1(O)[C@H](O)[C@@H](CO)O[C@H]1n1cnc2c(=O)[nH]c(N)nc21 [2’-C-methyl-guanosine, reference compound]
OUT: 6.00

###

test system: BVDV; assay: microbe, parasite or virus in culture; format: cell-based, bovine viral diarrhoea virus; details: Bovine viral diarrhea virus isolates and strains, MDBK, in Bos taurus, read-out: EC50 BVDV
Readout Label: EC50 (nM)
Answers are plain numbers, in nM.

IN: Param readout = EC50; param system = BVDV; param query = C[C@@]1(O)[C@H](O)[C@@H](CO)O[C@H]1n1cnc2c(=O)[nH]c(N)nc21 [2’-C-methyl-guanosine, reference compound] ; response: value
OUT: 2000
